Molecular target: T1, CD137-hisFc fusion protein (Sino Biological Cat 10041-H03H) (human, UniProt Q07011 24-186)
T1 construct: Bought; also called recombinant human CD137 (fused with human Fc and His tag); not shown: His tag and human Fc
Experiment: BLI Octet, Fab;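 note: fab fragments expressed in E. coli, binding to human CD137 measured on Octet RED96, kinetics fitted with a 1:1 Langmuir model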
Would you kindly list koff for each of these binders?
Just the number in s⁻¹, nothing appended.

Q: Request the reported koff associated with Fab 5367 (Fab, V domains shown, Fab from E. coli; also called VH31/VL31) VH: EVQLVESGGGLVQPGGSLRLSCAASGFSLSTSGVGVGWIRQAPGKGLEWVSGISGAGDSTYYADSVKGRFTISRDNSKNTLYLQLNSLRAEDTAVYYCAREGSDTVLGDWFAYWGQGTLVTVSS VL: DIQLTQSPSSLSASVGDRVTITCRASQDIRSYLAWYQQKPGKAPKLLIYDASNRATGIPSRFSGSGSGTDFTLTISSLQPEDFATYYCQQGYSIWTFGQGTKVEIKR
A: 0.0061

Q: For the binder Fab 5299 (Fab, V domains shown, Fab from E. coli; also called VH11/VL11) VH: EVQLVESGGGLVQPGGSLRLSCAASGYSISSGHYWGWIRQAPGKGLEWLALIDWYGDKYYSTSLKSRLTISRDNSKNTLYLQLNSLRAEDTAVYYCARSDYYGSHFDYWGQGTLVTVSS VL: DIQLTQSPSSLSASVGDRVTITCRASESVDFDGFSFLAWYQQKPGKAPKLLIYDASNLETGVPSRFSGSGSGTDFTLTISSLQPEDFATYYCQQYDTLPRTFGQGTKVEIKR , what koff is on record?
A: 0.0076
